Cited source for all entries: patent US20210269525A1

List of upper right quadrant, percent of cells AF647+ / hTcRβ-PerCP+ values.
# Experimental System: T1, human CD3e (T-cell surface glycoprotein CD3 epsilon chain) (human, UniProt P07766 23-207)
# T1 construct: Target of the anti-hCD3e antibodies on human PBMC, Jurkat cells and cells expressing human CD3e; on T cells it is part of the CD3/TCR complex; also called hCD3e; CD3e on human PBMC
# Assay Name: flow cytometry, human PBMC, antibody 0.1 µg/mL, anti-human IgG Fc-Alexa Fluor647 (1:500), anti-hTcRβ-PerCP (1:30)
Entry rule: numbers only, all in %.

I would be grateful if you could share the reported upper right quadrant, percent of cells AF647+ / hTcRβ-PerCP+ for 1B1-H3K2-IgG1-LALA (antibody, V domains shown, Humanized; human IgG1 with LALA mutations; also called H3K2 (humanized 1B1)) VH: QVQLVQSGAEVKKPGASVKLSCKASGYTFTSYWMHWVRQRHGQGLEWIGNIYPDSGTTNYGEKFKTRVTLTVDTSTSTAYMELSSLRSEDTAVYYCTRDTSGQYYFDYWGQGTLVTVSS VL: DIVMTQSPDSLAVSAGERVTMNCKSSQSLLNSRTRKNYLAWYQHKPGQSPKLLIYWASTRESGVPDRFSGSGSGTDFTLTISSLQAEDVAVYYCVQSFSLRAFGGGTKVEIK .
57.7

I would be grateful if you could share the reported upper right quadrant, percent of cells AF647+ / hTcRβ-PerCP+ for 1B1-H4K1-IgG1-LALA (antibody, V domains shown, Humanized; human IgG1 with LALA mutations; also called H4K1 (humanized 1B1)) VH: QVQLVQSGAEVVKPGASVKLSCKASGYTFTSYWMHWVRQRHGQGLEWIGNIYPDSGTTNYGEKFKTRGTLTVDTSTSTAYMELSSLRSEDTAVYYCTRDTSGQYYFDYWGQGTLVTVSS VL: DIVMTQSPDSLAVSAGERATMNCKSSQSLLNSRTRKNYLAWYQHKPGQSPKLLIYWASTRESGVPDRFSGSGSGTDFTLTISSLQAEDVAVYYCVQSFSLRAFGGGTKVEIK .
54.1

I would be grateful if you could share the reported upper right quadrant, percent of cells AF647+ / hTcRβ-PerCP+ for 1B1-H3K1-IgG1-LALA (antibody, V domains shown, Humanized; human IgG1 with LALA mutations; also called H3K1 (humanized 1B1)) VH: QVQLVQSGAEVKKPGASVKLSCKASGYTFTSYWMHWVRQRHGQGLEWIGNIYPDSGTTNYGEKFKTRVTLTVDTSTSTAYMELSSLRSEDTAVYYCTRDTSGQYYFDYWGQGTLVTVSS VL: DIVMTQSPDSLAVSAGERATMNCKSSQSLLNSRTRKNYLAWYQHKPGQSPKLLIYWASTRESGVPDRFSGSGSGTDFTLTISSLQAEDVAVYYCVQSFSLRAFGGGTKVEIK .
55.5

I would be grateful if you could share the reported upper right quadrant, percent of cells AF647+ / hTcRβ-PerCP+ for 1B1-H2K3-IgG1-LALA (antibody, V domains shown, Humanized; human IgG1 with LALA mutations; also called H2K3 (humanized 1B1)) VH: QVQLVQSGAEVKKPGASVKLSCKASGYTFTSYWMHWVRQAPGQGLEWIGNIYPDSGTTNYGEKFKTRVTLTVDTSTSTAYMELSSLRSEDTAVYYCTRDTSGQYYFDYWGQGTLVTVSS VL: DIVMTQSPDSLAVSAGERVTMNCKSSQSLLNSRTRKNYLAWYQHKPGQSPKLLIYWASTRESGVPDRFSGSGSGTDFTLTISSVQAEDVAVYYCVQSFSLRAFGGGTKLEIK .
59.1

I would be grateful if you could share the reported upper right quadrant, percent of cells AF647+ / hTcRβ-PerCP+ for 1B1-H2K1-IgG1-LALA (antibody, V domains shown, Humanized; human IgG1 with LALA mutations; also called H2K1 (humanized 1B1)) VH: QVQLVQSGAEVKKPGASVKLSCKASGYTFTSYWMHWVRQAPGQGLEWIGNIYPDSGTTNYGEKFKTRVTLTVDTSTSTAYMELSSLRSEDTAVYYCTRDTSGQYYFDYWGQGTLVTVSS VL: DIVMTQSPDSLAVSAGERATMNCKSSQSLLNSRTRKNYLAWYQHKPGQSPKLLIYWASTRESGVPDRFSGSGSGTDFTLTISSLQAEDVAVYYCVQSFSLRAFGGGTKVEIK .
59.2

I would be grateful if you could share the reported upper right quadrant, percent of cells AF647+ / hTcRβ-PerCP+ for 1B1-H4K3-IgG1-LALA (antibody, V domains shown, Humanized; human IgG1 with LALA mutations; also called H4K3 (humanized 1B1)) VH: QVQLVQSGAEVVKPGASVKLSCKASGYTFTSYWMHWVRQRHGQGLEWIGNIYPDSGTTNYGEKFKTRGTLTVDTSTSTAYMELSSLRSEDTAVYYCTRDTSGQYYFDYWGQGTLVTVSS VL: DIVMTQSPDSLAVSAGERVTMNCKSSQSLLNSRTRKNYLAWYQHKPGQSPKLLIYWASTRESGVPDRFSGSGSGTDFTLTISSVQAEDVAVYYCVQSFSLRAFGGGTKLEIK .
54.7

I would be grateful if you could share the reported upper right quadrant, percent of cells AF647+ / hTcRβ-PerCP+ for 1B1-H4K2-IgG1-LALA (antibody, V domains shown, Humanized; human IgG1 with LALA mutations; also called H4K2 (humanized 1B1)) VH: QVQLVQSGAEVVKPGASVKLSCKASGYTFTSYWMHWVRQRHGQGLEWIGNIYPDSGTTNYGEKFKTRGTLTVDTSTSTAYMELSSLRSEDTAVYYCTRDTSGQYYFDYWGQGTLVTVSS VL: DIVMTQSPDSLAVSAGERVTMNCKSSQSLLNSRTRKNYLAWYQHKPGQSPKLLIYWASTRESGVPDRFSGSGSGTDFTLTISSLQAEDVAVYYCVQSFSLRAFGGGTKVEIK .
54
